Give self-cleavage for every item shown.
B1: CPEB3 Ribozyme (parent)
chain: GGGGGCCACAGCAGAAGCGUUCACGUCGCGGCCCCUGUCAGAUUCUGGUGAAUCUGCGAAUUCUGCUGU

variants of: B1; assay: self-cleavage, relative activity (ratio to wild type); higher = more cleavage; co-transcriptional
One number for each entry.

Examples from the recorded data:
Residue change	Measurement kind	Number
A42U U67C	self-cleavage	0.947
A10U U44A	self-cleavage	0.967
A15G A42U	self-cleavage	0.946
A23G U53G	self-cleavage	0.85
G19U U69G	self-cleavage	0.819

Would you mind giving self-cleavage for every variant in the list below?
1. G47U U61C
2. G19C U62C
3. U21G C45U
4. G14A U36G

1: 0.937; 2: 0.123; 3: 0.593; 4: 0.134
